Entries below carry reported Ki on Glutamate receptor ionotropic, AMPA (Mus musculus, UniProt P23818+P23819+Q9Z2W8+Q9Z2W9).
observed property: Ki (nM)

CCOC(=O)CCn1c(=O)c(=O)[nH]c2cc([N+](=O)[O-])c(-n3cccc3)cc21 | 260
CCOC(=O)Cn1c(=O)c(=O)[nH]c2cc([N+](=O)[O-])c(-n3cccc3)cc21 | 910
CS(=O)(=O)c1cc2[nH]c(=O)c(=O)n(C3CCCCC3)c2cc1-n1cccc1 | 15000
CCNC(=O)Cn1c(=O)c(=O)[nH]c2cc([N+](=O)[O-])c(-n3cccc3)cc21 | 2700
O=c1[nH]c2cc([N+](=O)[O-])c(-n3cccc3)cc2n(C2CCCCC2)c1=O | 400
CCn1c(=O)c(=O)[nH]c2cc([N+](=O)[O-])c(-n3cccc3)cc21 | 850
O=C(O)CCn1c(=O)c(=O)[nH]c2cc([N+](=O)[O-])c(-n3cccc3)cc21 | 330
O=C(Cn1c(=O)c(=O)[nH]c2cc([N+](=O)[O-])c(-n3cccc3)cc21)Nc1ccccc1 | 2100
O=c1[nH]c2cc(-n3cccc3)c([N+](=O)[O-])cc2n(C2CCCCC2)c1=O | 25000

* * *

test system: Mus musculus; experiment: In vivo AMPA antagonistic activity was determined by measuring ability to antagonize AMPA induced lethal convulsions in mice at 15 min upon intraperitoneal administration; format: functional; conditions: ip, 0.25 h
observed property: ED50

O=C(O)CCn1c(=O)c(=O)[nH]c2cc([N+](=O)[O-])c(-n3cccc3)cc21 | > 30 mg/kg
CCOC(=O)CCn1c(=O)c(=O)[nH]c2cc([N+](=O)[O-])c(-n3cccc3)cc21 | > 30 mg/kg
O=C(O)Cn1c(=O)c(=O)[nH]c2cc(C(F)(F)F)c(-n3cccc3)cc21 | > 50 mg/kg
O=C(O)CCn1c(=O)c(=O)[nH]c2cc(C(F)(F)F)c(-n3cccc3)cc21 | > 50 mg/kg
CCn1c(=O)c(=O)[nH]c2cc([N+](=O)[O-])c(-n3cccc3)cc21 | > 50 mg/kg

* * *

Entries below carry reported Ki on Glutamate receptor ionotropic, AMPA (Mus musculus, UniProt P23818+P23819+Q9Z2W8+Q9Z2W9).
observed property: Ki (µM)

O=C(O)Cn1c(=O)c(=O)[nH]c2cc(C(F)(F)F)c(-n3cccc3)cc21 | 0.17
CNC(=O)Cn1c(=O)c(=O)[nH]c2cc(C(F)(F)F)c(-n3cccc3)cc21 | 20
O=c1[nH]c2cc([N+](=O)[O-])c(-n3cccc3)cc2n(C2CC2)c1=O | 3.5
O=C(O)CCn1c(=O)c(=O)[nH]c2cc(C(F)(F)F)c(-n3cccc3)cc21 | 0.39
O=C(CCn1c(=O)c(=O)[nH]c2cc(C(F)(F)F)c(-n3cccc3)cc21)NCc1ccccc1 | 8
Oc1nc2cc(Cl)c(-n3cccc3)cc2nc1O | 20
CCOC(=O)CCn1c(=O)c(=O)[nH]c2cc(C(F)(F)F)c(-n3cccc3)cc21 | 0.58
Oc1nc2cc(-n3cccc3)c(C(F)(F)F)cc2nc1O | 3
O=c1[nH]c2cc(C(F)(F)F)c(-n3cccc3)cc2n(C2CCCCC2)c1=O | 1.6
O=C(O)Cn1c(=O)c(=O)[nH]c2cc([N+](=O)[O-])c(-n3cccc3)cc21 | 0.07
O=[N+]([O-])c1cc2nc(O)c(O)nc2cc1-n1cccc1 | 0.4
O=c1[nH]c2cc(Cl)c(-n3cccc3)cc2n(C2CCCCC2)c1=O | 10
O=C(Cn1c(=O)c(=O)[nH]c2cc([N+](=O)[O-])c(-n3cccc3)cc21)NCCc1ccccc1 | 20
CCC(CC)Cn1c(=O)c(=O)[nH]c2cc([N+](=O)[O-])c(-n3cccc3)cc21 | 6
O=C(Cn1c(=O)c(=O)[nH]c2cc([N+](=O)[O-])c(-n3cccc3)cc21)NCc1ccccc1 | 20

* * *

system: Mus musculus; assay: In vivo AMPA antagonistic activity was determined by measuring ability to antagonize AMPA induced lethal convulsions in mice at 15 min upon intraperitoneal administration; format: functional; details: ip, 0.25 h
observed property: ED50 (mg/kg)

O=C(O)Cn1c(=O)c(=O)[nH]c2cc([N+](=O)[O-])c(-n3cccc3)cc21 | 30
O=[N+]([O-])c1cc2nc(O)c(O)nc2cc1-n1cccc1 | 21

* * *

test system: Mus musculus; assay: In vivo AMPA antagonistic activity was determined by measuring ability to antagonize AMPA induced lethal convulsions in mice at 15 min upon intraperitoneal administration; assay type: functional; conditions: ip, 0.25 h
Some compounds, each annotated with its measured ED50.
observed property: ED50

O=c1[nH]c2cc([N+](=O)[O-])c(-n3cccc3)cc2n(C2CCCCC2)c1=O | > 50 mg/kg
NS(=O)(=O)c1cccc2c1c([N+](=O)[O-])cc1nc(O)c(O)nc12 | > 50 mg/kg
CCOC(=O)Cn1c(=O)c(=O)[nH]c2cc([N+](=O)[O-])c(-n3cccc3)cc21 | > 50 mg/kg
